- assay_explanation: Cytotoxicity against mouse NCTC-929 cells assessed as decrease in cell viability after 48 hrs by MTT assay
- Assay type: toxicity

compound	CC50 at 48 h (µM)
CCCCCCCCC[C@@H]1C[C@@H]2CC[C@H]3C(C(=O)O)[C@@H](C)N=C(N1)N23 (single isomer, unassigned; 16)	60
CCCCCCCCCc1cc(CCCO)nc(N)n1	42

---

- assay_explanation: Cytotoxicity against mouse NCTC-929 cells assessed as decrease in cell viability after 48 hrs by MTT assay
- Format: toxicity
Items are presented alongside their recorded CC50 at 48 h.

molecule	units_symbol	CC50 at 48 h
CCCCCCCC(=O)OCCCC[C@H]1C[C@H]2CC[C@H]3C[C@@H](C)[NH+]=C(N1)N23.F[B-](F)(F)F	µM	100
C=CCOC(=O)C1=C(CCCCC[C@@H](C)O[Si](C(C)(C)C)(C(C)(C)C)C(C)(C)C)NC2=[N+]3[C@H](CC[C@@H]13)C[C@H](C)N2.CC(=O)[O-]	µM	2
CCCCCCCCC[C@@H]1C[C@@H]2CC[C@H]3C(C(=O)O)[C@@H](C)N=C(N1)N23.O=C(O)C(F)(F)F (single isomer, unassigned; 15)	µM	70

---

- assay_explanation: Cytotoxicity against mouse NCTC-929 cells assessed as decrease in cell viability after 48 hrs by MTT assay
- Type: toxicity
Recorded measurements of CC50 at 48 h, one per entry
observable: CC50 at 48 h (µM)

CCCCCCCCCCCCCCCCOP(=O)([O-])OCC[N+](C)(C)C 122
C[C@@H]1C[C@@H]2CC[C@@H]3C[C@H](CCCCO[Si](C(C)(C)C)(C(C)(C)C)C(C)(C)C)NC(=[NH+]1)N32.F[B-](F)(F)F 65
CCCCCCCCCCCC(=O)OCCCC[C@H]1C[C@H]2CC[C@H]3C[C@@H](C)[NH+]=C(N1)N23.F[B-](F)(F)F 57

---

- assay_explanation: Selectivity index, ratio of CC50 for mouse NCTC-929 cells to IC50 for Trypanosoma cruzi Y trypomastigote form infected in monkey LLC-MK2 cells
- Type: functional
Note to self: Ratio CC50/IC50 under 5 means MET, ties and anything higher get NOT MET.

compound	label
C[C@@H]1C[C@@H]2CC[C@@H]3C[C@H](CCCCOCc4ccccc4)NC(=[NH+]1)N32.F[B-](F)(F)F	MET
O=C(Cn1ccnc1[N+](=O)[O-])NCc1ccccc1	NOT MET
C[C@@H]1C[C@@H]2CC[C@@H]3C[C@H](CCCCO[Si](C(C)(C)C)(C(C)(C)C)C(C)(C)C)NC(=[NH+]1)N32.F[B-](F)(F)F	NOT MET
CC(C)=CCC/C(C)=C/CNC(=N)N.Cl	MET
CCCCCCCCCC(=O)OCCCC[C@H]1C[C@H]2CC[C@H]3C[C@@H](C)[NH+]=C(N1)N23.F[B-](F)(F)F	NOT MET
CCCCCCCCC[C@@H]1C[C@@H]2CC[C@H]3C(C(=O)O)[C@@H](C)N=C(N1)N23.O=C(O)C(F)(F)F (single isomer, unassigned; 15)	MET
C=CCOC(=O)C1=C(CCCCC[C@@H](C)O[Si](C(C)(C)C)(C(C)(C)C)C(C)(C)C)NC2=[N+]3[C@H](CC[C@@H]13)C[C@H](C)N2.CC(=O)[O-]	MET
CCCCCCCCC[C@@H]1C[C@@H]2CC[C@H]3C(C(=O)O)[C@@H](C)N=C(N1)N23 (single isomer, unassigned; 16)	MET
CCCCCCCC(=O)OCCCC[C@H]1C[C@H]2CC[C@H]3C[C@@H](C)[NH+]=C(N1)N23.F[B-](F)(F)F	NOT MET
CCCCCC(=O)OCCCC[C@H]1C[C@H]2CC[C@H]3C[C@@H](C)[NH+]=C(N1)N23.F[B-](F)(F)F	NOT MET
CCCCCCCCCCCC(=O)OCCCC[C@H]1C[C@H]2CC[C@H]3C[C@@H](C)[NH+]=C(N1)N23.F[B-](F)(F)F	NOT MET
